Biological target: Glutaminase kidney isoform, mitochondrial (Homo sapiens) (UniProt O94925)
Sequence (O94925 whole entry, looked up, canonical isoform): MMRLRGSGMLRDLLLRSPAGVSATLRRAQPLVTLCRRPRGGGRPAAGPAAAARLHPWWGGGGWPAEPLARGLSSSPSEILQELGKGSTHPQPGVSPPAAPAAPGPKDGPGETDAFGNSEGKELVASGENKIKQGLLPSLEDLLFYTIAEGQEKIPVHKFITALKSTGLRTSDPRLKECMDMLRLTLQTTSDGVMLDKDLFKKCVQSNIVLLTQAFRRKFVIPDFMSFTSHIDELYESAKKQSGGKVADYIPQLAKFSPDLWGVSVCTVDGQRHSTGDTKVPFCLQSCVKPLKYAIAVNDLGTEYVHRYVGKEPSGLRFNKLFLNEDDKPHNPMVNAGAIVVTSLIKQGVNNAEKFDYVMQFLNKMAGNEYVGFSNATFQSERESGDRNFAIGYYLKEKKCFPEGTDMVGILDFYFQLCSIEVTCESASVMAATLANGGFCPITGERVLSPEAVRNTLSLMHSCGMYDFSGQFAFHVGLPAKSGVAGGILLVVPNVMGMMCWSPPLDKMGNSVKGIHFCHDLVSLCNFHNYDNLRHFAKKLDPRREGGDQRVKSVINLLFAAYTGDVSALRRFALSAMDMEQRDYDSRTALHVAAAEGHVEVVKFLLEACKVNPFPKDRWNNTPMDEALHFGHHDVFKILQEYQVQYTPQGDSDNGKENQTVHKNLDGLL
Assay: qHTS for Inhibitors of Glutaminase (GLS): LOPAC Validation (AID 624146);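 note: glutamate product detected by oxidase and peroxidase coupled Amplex red fluorescence gain; nearly all actives have a fitted effect of over 60% in size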
Details: glutaminase enzyme activity inhibition; series mostly up to 46.1 µM
Excerpt: Glutaminase (GLS) catalyzes the hydrolysis of glutamine into glutamate and ammonia. It plays a critical role in glutaminolysis, which is an important energy source for proliferating cells. […] The overall goal of this project is to identify small molecule inhibitors of GLS through quantitative high throughput screening (qHTS) of the MLSMR. […]
Results filed as inconclusive are left out. The source made the active and inactive calls. Calls come from the whole dose curve; as a rule, active = well fitted inhibition curve with a large enough effect; inconclusive = small, poorly fitted or top-dose-only effect; inactive = no such curve, though single readings can be large or run the other way.
Result category, one only: YES for active, NO for inactive

Here are 3 molecules together with their reported answers.
{"columns": ["molecule", "assay target", "classification"],
 "data": [
  ["COc1ccc(Cl)cc1C(=O)NCCc1ccc(S(=O)(=O)NC(=O)NC2CCCCC2)cc1", "Glutaminase kidney isoform, mitochondrial (Homo sapiens) (UniProt O94925)", "NO"],
  ["CC[C@H]1CN2CCc3cc(OC)c(OC)cc3[C@@H]2C[C@@H]1C[C@H]1NCCc2cc(OC)c(OC)cc21", "Glutaminase kidney isoform, mitochondrial (Homo sapiens) (UniProt O94925)", "NO"],
  ["CC(C)(C)c1onc(OCP(=O)(O)O)c1CC(N)C(=O)O (stereo unspecified)", "Glutaminase kidney isoform, mitochondrial (Homo sapiens) (UniProt O94925)", "NO"]
]}

What is the recorded call for this molecule in the test? COCCOC(=O)C1=C(C)NC(C)=C(C(=O)OC/C=C/c2ccccc2)C1c1cccc([N+](=O)[O-])c1 (stereo unspecified) NO

What is the recorded call for this molecule in the test? CCCCCCCCCCCCCCCC(=O)NCCO NO

Hello, the source for this data is PubChem BioAssay (NCATS), in case you need it.
